Items are presented alongside their recorded pKd.
Target: T1, RHPN1, Q8TCX5
T1 sequence (Q8TCX5 508-602, limits assumed, looked up): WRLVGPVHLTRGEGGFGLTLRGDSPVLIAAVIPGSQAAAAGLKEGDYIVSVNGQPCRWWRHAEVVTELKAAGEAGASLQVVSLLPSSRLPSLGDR
Test: holdup assay
Design: key: below the threshold = too weak to quantify, mostly under pKd 3.1 to 4
Conditions: plain residues with an end cap or a label only (N-terminal biotin on a linker: ado-ado)
Number only, please.

Illustrative cases are given below, each with its answer.
THREVKFTSL [CD46, P15529] ... 4.48
NKSEPFLTWL [WWTR1, Q9GZV5] ... 4.64
GVHSNDHSVV [LPAR1, Q92633] ... 3.78

Now examine the next entry.
// query # lookup: pKd of SAGADSETHC [SLCO1B1, Q9Y6L6]
// result 3.49
